- MEASUREMENT_DESCRIPTION: Ratio of drug level in tumor to plasma of hEML4-ALK transgenic C57BL/6J mouse at 10 to 100 mg/kg, po administered daily for 10 days and measured 24 hrs post-last dose
- Format: ADME, organism-based
- TEST_CONTEXT: dose 10-100 mg/kg, time 11 day
OUTCOME_MEASURE: Kp at 264 h

>  <COMPOUND>
COc1cc(N2CCC(N3CCN(C)CC3)CC2)ccc1Nc1ncnc(Nc2ccccc2S(=O)(=O)C(C)C)n1 [ASP-3026]

>  <OUTCOME_MEASURE>
Kp at 264 h

>  <REPORTED_RESULT>
> 100

$$$$

----------
- TARGET_OR_SYSTEM: Ephrin type-B receptor 4 (Homo sapiens)
- Sequence (P54760 whole entry): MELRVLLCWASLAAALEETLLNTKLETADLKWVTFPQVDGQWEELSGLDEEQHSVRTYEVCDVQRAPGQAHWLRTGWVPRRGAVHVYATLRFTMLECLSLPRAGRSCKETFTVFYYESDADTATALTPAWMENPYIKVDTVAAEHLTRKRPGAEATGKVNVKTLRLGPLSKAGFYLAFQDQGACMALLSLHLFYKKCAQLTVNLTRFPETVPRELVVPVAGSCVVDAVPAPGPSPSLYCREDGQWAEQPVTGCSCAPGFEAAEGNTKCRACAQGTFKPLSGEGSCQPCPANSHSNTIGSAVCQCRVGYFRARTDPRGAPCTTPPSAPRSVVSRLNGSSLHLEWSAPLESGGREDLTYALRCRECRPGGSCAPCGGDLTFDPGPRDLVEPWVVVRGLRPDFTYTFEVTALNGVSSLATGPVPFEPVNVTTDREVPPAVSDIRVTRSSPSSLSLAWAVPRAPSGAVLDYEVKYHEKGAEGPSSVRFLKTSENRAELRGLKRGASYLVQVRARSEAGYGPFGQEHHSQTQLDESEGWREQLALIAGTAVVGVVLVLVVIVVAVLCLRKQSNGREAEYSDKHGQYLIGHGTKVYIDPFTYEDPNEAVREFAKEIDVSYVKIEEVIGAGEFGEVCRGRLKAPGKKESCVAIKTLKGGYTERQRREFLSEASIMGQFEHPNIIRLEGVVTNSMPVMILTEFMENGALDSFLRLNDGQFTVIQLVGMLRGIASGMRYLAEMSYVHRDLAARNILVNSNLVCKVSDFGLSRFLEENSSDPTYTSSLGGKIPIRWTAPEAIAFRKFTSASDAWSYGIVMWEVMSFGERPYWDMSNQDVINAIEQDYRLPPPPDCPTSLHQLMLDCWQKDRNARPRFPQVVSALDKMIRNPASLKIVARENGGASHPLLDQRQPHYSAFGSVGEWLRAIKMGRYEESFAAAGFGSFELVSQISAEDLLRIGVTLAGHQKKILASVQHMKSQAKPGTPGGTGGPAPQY

>  <SMILES_TEXT>
COc1cc(N2CCC(N3CCN(C)CC3)CC2)ccc1Nc1ncnc(Nc2ccccc2S(=O)(=O)C(C)C)n1

>  <TARGET_OR_SYSTEM>
Ephrin type-B receptor 4 (Homo sapiens)

>  <IC50>
> 1000 nM

$$$$

----------
- MEASUREMENT_DESCRIPTION: Cmax in human NCI-H2228 cell xenografted NOD.CB17-Prkdcscid/J mouse plasma at 1 mg/kg/day for 5 days by HPLC-MS analysis
- Assay type: ADME, organism-based
- TEST_CONTEXT: route po, time 5 day
OUTCOME_MEASURE: Cmax

>  <SMILES_TEXT>
COc1cc(N2CCC(N3CCN(C)CC3)CC2)ccc1Nc1ncnc(Nc2ccccc2S(=O)(=O)C(C)C)n1

>  <OUTCOME_MEASURE>
Cmax

>  <REPORTED_RESULT>
44.3 ng/mL

$$$$
